# assayProtocol: RAD001 pharmacokinetic analysis in blood of tumor bearing mice
# Format: in vivo, NSG mice
# cond: NSG, mouse, whole blood; day 0 PK, 24 hours after dosing, 0.3 mg/kg oral; read-out: RAD001 concentration in the blood
property: concentration at 24 h

CO[C@H]1C[C@@H]2CC[C@@H](C)[C@@](O)(O2)C(=O)C(=O)N2CCCC[C@H]2C(=O)O[C@H]([C@H](C)C[C@@H]2CC[C@@H](OCCO)[C@H](OC)C2)CC(=O)[C@H](C)/C=C(\C)[C@@H](O)[C@@H](OC)C(=O)[C@H](C)C[C@H](C)/C=C/C=C/C=C/1C = > 10 nM
